- target.system: Human mTOR (FLAG-TOR) (Homo sapiens)
- procedure.details: mTOR kinase assay (DELFIA format, purified enzyme)
- Type: biochemical
- test.conditions: read-out: IC50 mTOR
Response field label takes 1.0 when IC50 is strictly below 0.8 nM and 0.0 in all other cases.

{"molecule": "O=C(Nc1ccc(C(=O)NCCc2ccncc2)cc1)Nc1ccc(-c2nc(N3CCOCC3)nc(N3C4COCC3COC4)n2)cc1", "assigned.class": 1.0}

Q: Consider the molecule O=C(Nc1ccncc1)Nc1ccc(-c2nc(N3CCN(Cc4ccccc4)CC3)nc(N3CC4CCC(C3)O4)n2)cc1 . Is its IC50 strictly less than 0.8 nM?
Result: 0.0

Q: Consider the molecule CN(C)C1CCN(C(=O)c2ccc(NC(=O)Nc3ccc(-c4nc(N5CCCCC5)nc(N5CCOCC5)n4)cc3)cc2)CC1 . Is its IC50 strictly less than 0.8 nM?
Result: 0.0

Q: Consider the molecule O=C(Nc1ccccc1)Nc1ccc(-c2nc(N3CCOCC3)nc(N3C4CCC3CC(O)C4)n2)cc1 (stereo not drawn) . Is its IC50 strictly less than 0.8 nM?
Result: 0.0

Q: Consider the molecule O=C(Nc1ccc(-c2nc(OCC3CCCNC3)nc(N3CC4CCC(C3)O4)n2)cc1)Nc1cccnc1 (stereo not drawn) . Is its IC50 strictly less than 0.8 nM?
Result: 0.0

Q: Consider the molecule O=C(Nc1ccncc1)Nc1ccc(-c2nc(OC3CCOCC3)nc(N3CCOCC3)n2)cc1 . Is its IC50 strictly less than 0.8 nM?
Result: 0.0

Q: Consider the molecule CCN(CC)c1nc(-c2ccc(NC(=O)Nc3cccnc3)cc2)nc(N2CC3CCC(C2)O3)n1 . Is its IC50 strictly less than 0.8 nM?
Result: 0.0

====

- target.system: Human mTOR (FLAG-TOR) (Homo sapiens, UniProt P42345)
- Sequence (P42345 1360-2549 limits assumed): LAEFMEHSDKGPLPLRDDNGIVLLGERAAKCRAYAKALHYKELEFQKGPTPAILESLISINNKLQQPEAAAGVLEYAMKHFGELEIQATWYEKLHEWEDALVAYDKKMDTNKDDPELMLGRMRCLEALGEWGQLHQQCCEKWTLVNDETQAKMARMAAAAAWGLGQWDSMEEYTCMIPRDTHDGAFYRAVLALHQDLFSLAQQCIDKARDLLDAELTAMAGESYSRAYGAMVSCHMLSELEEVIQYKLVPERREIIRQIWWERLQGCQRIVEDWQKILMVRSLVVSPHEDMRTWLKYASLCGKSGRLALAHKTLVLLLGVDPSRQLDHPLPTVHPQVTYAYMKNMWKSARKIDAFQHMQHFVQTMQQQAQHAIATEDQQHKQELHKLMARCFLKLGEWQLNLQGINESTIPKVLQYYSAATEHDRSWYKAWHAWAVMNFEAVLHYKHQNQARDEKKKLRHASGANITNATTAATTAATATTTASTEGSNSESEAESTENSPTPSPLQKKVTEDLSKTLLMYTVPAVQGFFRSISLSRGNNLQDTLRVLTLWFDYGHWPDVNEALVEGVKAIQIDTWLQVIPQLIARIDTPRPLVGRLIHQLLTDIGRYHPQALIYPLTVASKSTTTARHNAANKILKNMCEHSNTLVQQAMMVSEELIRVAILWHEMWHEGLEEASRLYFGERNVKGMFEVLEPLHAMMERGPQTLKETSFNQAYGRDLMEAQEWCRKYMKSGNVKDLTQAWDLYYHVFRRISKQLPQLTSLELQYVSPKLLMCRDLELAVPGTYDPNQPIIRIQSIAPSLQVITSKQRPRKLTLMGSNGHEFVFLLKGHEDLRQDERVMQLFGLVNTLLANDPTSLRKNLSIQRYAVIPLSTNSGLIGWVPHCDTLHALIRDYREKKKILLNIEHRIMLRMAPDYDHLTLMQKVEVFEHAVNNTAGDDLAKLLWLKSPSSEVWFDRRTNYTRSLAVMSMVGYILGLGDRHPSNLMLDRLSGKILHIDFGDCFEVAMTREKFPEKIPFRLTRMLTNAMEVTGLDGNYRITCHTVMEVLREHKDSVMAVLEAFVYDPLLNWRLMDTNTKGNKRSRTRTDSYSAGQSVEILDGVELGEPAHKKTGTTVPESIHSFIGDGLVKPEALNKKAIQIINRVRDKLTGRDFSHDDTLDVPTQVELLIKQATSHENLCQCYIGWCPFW
- procedure.details: mTOR kinase assay (DELFIA format, purified enzyme)
- Assay type: biochemical
- test.conditions: read-out: IC50 mTOR
readout.type: pIC50
The quantity pIC50 is defined as the negative base-10 logarithm of the molar concentration.

// worked examples, pIC50 included
{"compound": "CN1CC2CN(c3nc(-c4ccc(NC(=O)Nc5ccncc5)cc4)nc(N4CCOCC4)n3)CC(C1)O2 [Example 291]", "pIC50": 6.72}
{"compound": "O=C(Nc1ccc(C(=O)O)cc1)Nc1ccc(-c2nc(C3=CCOCC3)nc(N3CCOCC3)n2)cc1 [Example 227]", "pIC50": 8.14}
{"compound": "CCN1CCN(C(=O)c2ccc(NC(=O)Nc3ccc(-c4nc(N5C6CCC5COC6)nc(N5CCOC[C@@H]5C)n4)cc3)cc2)CC1 [Example 836]", "pIC50": 6.18}
{"compound": "C[C@@H]1COCCN1c1nc(-c2ccc(NC(=O)Nc3ccncc3)cc2)nc(N2C[C@@H]3C[C@H]2CO3)n1 [Example 410]", "pIC50": 8.64}

Q: # lookup: pIC50 of O=C(Nc1ccc(C(=O)NCCO)cc1)Nc1ccc(-c2nc(N3CCOCC3)nc(N3C4CCC3COC4)n2)cc1 [Example 699]
Result: 9.52

Q: # lookup: pIC50 of CCC(C)N1CCN(C(=O)c2ccc(NC(=O)Nc3ccc(-c4nc(N5CCOC[C@@H]5C)nc(N5CCOC[C@@H]5C)n4)cc3)cc2)CC1 (stereo partly shown) [Example 632]
Result: 9.00

Q: # lookup: pIC50 of CN1CCN(C(=O)c2ccc(NC(=O)Nc3ccc(-c4nc(-c5ccccc5)nc(N5CCOCC5)n4)cc3)cc2)CC1 [Example 543]
Result: 7.38
